- MEASUREMENT_NOTES: chemical genetic growth profiling, strain panel (AID 1159580);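 note: tested at 20 µM; growth read once vehicle control cultures reached saturation at 30 °C; 1 = growth at the plate median or of vehicle wells; lower values mean less growth of the strain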
- STUDY_CONDITIONS: S. cerevisiae deletion strains, growth OD, locus YDR335W, strain msn5, active compounds read low
In all, about 5,500 compounds went through this assay and about 2,000 (36%) were called active. Roughly 18% stayed inconclusive and do not appear here. The list shows a part of the results.
ENDPOINT_NAME: normalized growth

MOLECULE	ENDPOINT_NAME	OBS_VALUE
O=C(O)c1cc(=O)c(O)c2c(O)c(O)ccc2c1	normalized growth	0.996 (inactive)
C[C@@H]1CC2C3CCC4=CC(=O)C=C[C@]4(C)[C@@]3(F)[C@@H](O)C[C@]2(C)[C@@]1(O)C(=O)COP(=O)(O)O (stereo partly drawn)	normalized growth	0.949 (inactive)
Oc1ccc(/C=C/c2cc(O)cc(O)c2)cc1	normalized growth	1.01 (inactive)
CC[C@@H](C(=O)[C@@H](C)[C@@H](O)[C@H](C)[C@@H]1O[C@@H]([C@@H](CC)C(=O)O)CC[C@@H]1C)[C@H]1OC2(C=C[C@@H](O)[C@]3(CC[C@@](C)([C@H]4CC[C@](O)(CC)[C@H](C)O4)O3)O2)[C@H](C)C[C@@H]1C (stereo partly drawn)	normalized growth	0.927 (inactive)
O=C(/C=C/c1ccc(O)c(O)c1)O[C@@H]1C[C@](O)(C(=O)O)C[C@@H](O)[C@H]1O	normalized growth	0.973 (inactive)
O=C(O)c1cc(O)c(O)c(O)c1	normalized growth	1.02 (inactive)
CCOc1ccc2c(c1)C(C)=CC(C)(C)N2	normalized growth	0.995 (inactive)

Ask | // query normalized growth value for entry `COC(=O)[C@H]1[C@H]2C[C@@H]3c4[nH]c5cc(OC)ccc5c4CCN3C[C@H]2C[C@@H](OC(=O)c2cc(OC)c(OC)c(OC)c2)[C@@H]1OC`
Reply | 0.993 (inactive)

====

- MEASUREMENT_NOTES: chemical genetic growth profiling, strain panel (AID 1159580)
- STUDY_CONDITIONS: S. cerevisiae deletion strains, growth OD, locus YNL209W, strain ssb2, active compounds read low
The campaign covered roughly 5,500 compounds. About 2,000 (36%) were called active. Not shown: some 18% with an inconclusive outcome. The list shows a part of the results.
ENDPOINT_NAME: normalized growth
Answer with the value's number alone.

Guide cases for normalized growth, answers given:
                                   compound  obs_value
0                c1ccc2[nH]c(-c3cscn3)nc2c1      0.984
1  O=C(/C=C/c1ccc(O)c(O)c1)O[C@@H]1C[C@](O)(C(=O)O)C[C@@H](O)[C@H]1O      0.991
2  CC(=O)O[C@H]1CC[C@@]2(C)C(=CCC3C2CC[C@]2(C)C(=O)CCC32)C1 (some centres undefined)      0.942

Okay, now this compound:
Ask | // query normalized growth value for entry `NC(=O)c1ccc(N)nc1`
Reply | 0.996

====

- MEASUREMENT_NOTES: chemical genetic growth profiling, strain panel (AID 1159580)
- STUDY_CONDITIONS: S. cerevisiae deletion strains, growth OD, locus YPL153C, strain RAD53
In all, about 5,500 compounds went through this assay and about 2,000 (36%) were called active. Inconclusive results (about 18%) are left out. Cut-off read from the data, not from the text of the source: active = normalized growth mostly below about 0.91 (no sharp cut-off); inconclusive = no clear call, values can overlap the other calls; inactive = mostly above about 0.92. This is one part of the list.
Response enum: active, inactive

Examples with answers:
                                   compound     class
0            N=C(N)SCc1nc(-c2ccc(Cl)cc2)no1  inactive
1  O=C(Nc1ccccn1)c1cc(-c2ccccc2)c(C(F)(F)F)s1  inactive

Ask | Identify the outcome logged in this assay for the compound shown: COc1ccccc1C(C[N+](=O)[O-])c1c(N)n(C)c(=O)n(C)c1=O (stereo unspecified)
Reply | active

Ask | Identify the outcome logged in this assay for the compound shown: `COc1cc(Cl)c(NS(=O)(=O)c2cc(Br)c(Br)s2)c(OC)c1`
Reply | inactive

Ask | Identify the outcome logged in this assay for the compound shown: `Cc1cc(C(=O)O/N=C(/N)c2ccc(C(C)(C)C)cc2)no1`
Reply | inactive

Ask | Identify the outcome logged in this assay for the compound shown: `Cc1cc(C(=O)O/N=C(/N)c2ccc([N+](=O)[O-])o2)no1`
Reply | inactive

====

- MEASUREMENT_NOTES: chemical genetic growth profiling, strain panel (AID 1159580);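 note: tested at 20 µM; growth read once vehicle control cultures reached saturation at 30 °C; 1 = growth at the plate median or of vehicle wells; lower values mean less growth of the strain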
- STUDY_CONDITIONS: S. cerevisiae deletion strains, growth OD, locus YIL066C, strain RNR3, active compounds read low
Hit rate of the full screen: of about 5,500 compounds, about 2,000 (36%) were called active. Roughly 18% stayed inconclusive and do not appear here. The list shows a part of the results.
Exam item: assign MET to entries whose normalized growth is below 1 and NOT MET to entries at or above 1. Note that a value of exactly 1 receives NOT MET.

MOLECULE	CLASS
COc1ccc(/C=C/c2cc(O)cc(O)c2)cc1	MET
O=C(O)c1cc(O)c(O)c(O)c1	NOT MET
CCOC(N)=O	NOT MET

Ask | normalized growth strictly < 1 for this molecule? `C[C@@]12C(=O)OC(=O)[C@]1(C)C1CCC2O1`
Reply | MET

Ask | normalized growth strictly < 1 for this molecule? `O=c1ccn([C@@H]2O[C@H](COP(=O)(O)OP(=O)(O)OP(=O)(O)O)[C@@H](O)[C@H]2O)c(=O)[nH]1`
Reply | NOT MET

Ask | normalized growth strictly < 1 for this molecule? CC12CCC3C(CC=C4CC(O)CCC43C)C1CCC2=O (configuration not stated)
Reply | MET

Ask | normalized growth strictly < 1 for this molecule? CN(C)CCCO[C@H]1[C@@H](C(O)CO)OC2OC(C)(C)O[C@@H]21 (some centres not stated)
Reply | MET

Ask | normalized growth strictly < 1 for this molecule? `CN=C1CN(O)C(c2ccccc2)=c2cc(Cl)ccc2=N1`
Reply | MET

====

# normalized growth per record follows
- MEASUREMENT_NOTES: chemical genetic growth profiling, strain panel (AID 1159580);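 note: tested at 20 µM; growth read once vehicle control cultures reached saturation at 30 °C; 1 = growth at the plate median or of vehicle wells; lower values mean less growth of the strain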
- STUDY_CONDITIONS: S. cerevisiae deletion strains, growth OD, locus YLL041C, strain sdh2, active compounds read low
Screen size: about 5,500 compounds; about 2,000 (36%) were called active. Not shown: some 18% with an inconclusive outcome. The list shows a part of the results.
Answer with the value's number alone.

>>> print(df.to_string())
                                   molecule  obs_value
0                 C=CCc1cc(OC)c2c(c1OC)OCO2      0.947
1  C=CC1=C(C)/C(=C/c2[nH]c(Cc3[nH]c(/C=C4\NC(=O)C(C)=C4C=C)c(C)c3CCC(=O)O)c(CCC(=O)O)c2C)NC1=O      0.979
2  CC1(C)C2CC(=O)O[C@@]3(C)C4=CC(=O)O[C@@H](c5ccoc5)[C@]4(C)CCC3[C@@]2(C)C=C[C@H]1O (stereo partly specified)      0.976
3  Nc1c(Br)cc(Br)cc1CNC1CCC(O)CC1 (stereo unspecified)      0.993
4                            NC(=O)c1cnccn1      0.993

Ask | // query normalized growth value for entry `CCOC(N)=O`
Reply | 0.995

====

- MEASUREMENT_NOTES: chemical genetic growth profiling, strain panel (AID 1159580);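 note: tested at 20 µM; growth read once vehicle control cultures reached saturation at 30 °C; 1 = growth at the plate median or of vehicle wells; lower values mean less growth of the strain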
- STUDY_CONDITIONS: S. cerevisiae deletion strains, growth OD, locus YJL164C, strain tpk1
Screen size: about 5,500 compounds; about 2,000 (36%) were called active. About 18% were inconclusive and are not listed. Rule as the data show it: active = normalized growth mostly below about 0.91 (no sharp cut-off); inconclusive = no clear call, values can overlap the other calls; inactive = mostly above about 0.92. Some of the results follow.
Response enum: active, inactive

>>> print(df.to_string())
                                   compound     class
0  CN(Cc1cnc2nc(N)nc(N)c2n1)c1ccc(C(=O)NC(CCC(=O)O)C(=O)O)cc1 (stereo not drawn)  inactive
1                        S=c1[nH]c2ccccc2s1  inactive
2  CC1=C(/C=C/C(C)=C/C=C/C(C)=C/C=C/C=C(C)/C=C/C=C(C)/C=C/C2=C(C)CCCC2(C)C)C(C)(C)CCC1  inactive
3  C[C@@H]1CC2C3CCC4=CC(=O)C=C[C@]4(C)[C@@]3(F)[C@@H](O)C[C@]2(C)[C@@]1(O)C(=O)COP(=O)(O)O (stereo partly drawn)  inactive
4  CCC(COC(=O)c1cc(OC)c(OC)c(OC)c1)(c1ccccc1)N(C)C (stereo not drawn)  inactive
5  N[C@@H](CCC(=O)N[C@@H](CCSC(CC(=O)O)C(=O)O)C(=O)NCC(=O)O)C(=O)O (stereo partly drawn)  inactive
6  c1cc2c(cc1[C@H]1OC[C@H]3[C@@H]1CO[C@H]3c1ccc3c(c1)OCO3)OCO2    active
7  CC(COc1ccccc1)N(CCCl)Cc1ccccc1 (stereo not drawn)  inactive
8       O=C1OCCN1/N=C\c1ccc([N+](=O)[O-])o1  inactive
9  Nc1nc(N)c2nc(CNc3ccc(C(=O)NC(CCC(=O)O)C(=O)O)cc3)cnc2n1 (stereo not drawn)  inactive

Ask | Identify the outcome logged in this assay for the compound shown: OC1CCCCC1N1CCC(c2ccccc2)CC1 (stereo not drawn)
Reply | inactive

Ask | Identify the outcome logged in this assay for the compound shown: `NC(=O)N/N=C\c1ccc([N+](=O)[O-])o1`
Reply | inactive

Ask | Identify the outcome logged in this assay for the compound shown: `Nc1ccc(S(=O)(=O)Nc2nccs2)cc1`
Reply | inactive

Ask | Identify the outcome logged in this assay for the compound shown: `CC1=C(/C=C/C(C)=C/C=C/C(C)=C\C(=O)O)C(C)(C)CCC1`
Reply | inactive

Ask | Identify the outcome logged in this assay for the compound shown: Nc1nc2c(c(=O)[nH]1)N(C=O)C(CNc1ccc(C(=O)N[C@@H](CCC(=O)O)C(=O)O)cc1)CN2 (stereo partly drawn)
Reply | inactive
